Tested on: Echinochloa crus-galli
ASSAY: Test Example 1: herbicidal effect test by soil treatment in paddy field
Assay type: in vivo
REPORTED_CONDITIONS: 120 g/10a, paddy soil treatment just after sowing, 14 days after treatment
Protocol: A Wagner pot having an area of 1/10000 are was filled with paddy field soil and after adding water, a chemical fertilizer (N:P:K=17:17:17) was mixed, followed by puddling. […] This test was performed with two replications per one formulation concentration plot, and 14 days after the formulation treatments, the weed suppression rate (%) was determined according to the following equation (Math. 1). […]
RECORDED_ENDPOINT: weed suppression rate, Echinochloa crus-galli (%)
Give the number; % is assumed, so skip it.

Which weed suppression rate, Echinochloa crus-galli value belongs to CC(C)N(C(=O)n1ncn(S(=O)(=O)C(C)C)c1=O)c1ccc(F)nc1 ?
100

Which weed suppression rate, Echinochloa crus-galli value belongs to CC(C)N(C(=O)n1ncn(S(=O)(=O)C2CCCCC2)c1=O)c1ccc(Cl)cc1Br ?
100

Which weed suppression rate, Echinochloa crus-galli value belongs to CC(C)N(C(=O)n1ncn(S(=O)(=O)C2CCCCC2)c1=O)c1cccc(F)c1F ?
100

Which weed suppression rate, Echinochloa crus-galli value belongs to CC(C)N(C(=O)n1ncn(S(=O)(=O)C2CC2)c1=O)c1ccc(Cl)cc1F ?
100

Which weed suppression rate, Echinochloa crus-galli value belongs to CC(C)N(C(=O)n1ncn(S(=O)(=O)C(C)C)c1=O)c1ccc(Cl)cn1 ?
90

Which weed suppression rate, Echinochloa crus-galli value belongs to CC(C)N(C(=O)n1ncn(S(=O)(=O)C2CC2)c1=O)c1ccc(C(F)(F)F)cc1Cl ?
90

Which weed suppression rate, Echinochloa crus-galli value belongs to CC(C)N(C(=O)n1ncn(S(=O)(=O)N2CCCCC2)c1=O)c1ccc(F)cc1F ?
90

Which weed suppression rate, Echinochloa crus-galli value belongs to CC(C)N(C(=O)n1ncn(S(=O)(=O)N(C)C)c1=O)c1ccc(F)cc1 ?
90

Which weed suppression rate, Echinochloa crus-galli value belongs to CC(C)N(C(=O)n1ncn(S(=O)(=O)C(C)C)c1=O)c1ccc(Cl)nc1 ?
90

Which weed suppression rate, Echinochloa crus-galli value belongs to CC(C)N(C(=O)n1ncn(S(=O)(=O)C2CC2)c1=O)c1ccc(F)cc1 ?
100

Which weed suppression rate, Echinochloa crus-galli value belongs to CC(C)N(C(=O)n1ncn(S(=O)(=O)N(C)C)c1=O)c1ccc(Cl)nc1Cl ?
100

Which weed suppression rate, Echinochloa crus-galli value belongs to CC(C)N(C(=O)n1ncn(S(=O)(=O)C2CCCCC2)c1=O)c1c(F)c(F)cc(F)c1F ?
100

Which weed suppression rate, Echinochloa crus-galli value belongs to CC(C)N(C(=O)n1ncn(S(=O)(=O)C2CCCCC2)c1=O)c1ccc(F)cc1F ?
100

Which weed suppression rate, Echinochloa crus-galli value belongs to CC(C)N(C(=O)n1ncn(S(=O)(=O)C2CCOC2)c1=O)c1ccc(F)cc1F (racemic) ?
90

Which weed suppression rate, Echinochloa crus-galli value belongs to CCC(C)S(=O)(=O)n1cnn(C(=O)N(c2ccc(F)cc2F)C(C)C)c1=O (stereo not shown) ?
90

Which weed suppression rate, Echinochloa crus-galli value belongs to CC(C)N(C(=O)n1ncn(S(=O)(=O)C(C)C)c1=O)c1ccc(F)cc1F ?
100

###

System: Lindernia pyxidaria
ASSAY: Test Example 12: herbicidal effect test by treatment during growing period in paddy field
Type: in vivo
REPORTED_CONDITIONS: 120 g/10a; treatment seven days after sowing in flooded paddy pot; assessed 14 days after treatment
Exercise: state measured Weed suppression rate (%) Lindemia pyxidaria for each of the compounds provided.
Output should be the measured figure followed by the unit it is expressed in.

Which Weed suppression rate (%) Lindemia pyxidaria value belongs to CC(C)N(C(=O)n1cnn(S(=O)(=O)c2cccc(F)c2)c1=O)c1c(F)cc(F)cc1F [Compound 11-442] ?
80%

Which Weed suppression rate (%) Lindemia pyxidaria value belongs to CC(C)N(C(=O)n1cnn(S(=O)(=O)c2ccc(Cl)cc2)c1=O)c1c(F)cc(F)cc1F [Compound 11-592] ?
80%

Which Weed suppression rate (%) Lindemia pyxidaria value belongs to CC(C)N(C(=O)n1cnn(S(=O)(=O)C(C)C)c1=O)c1cccc(F)c1 [Compound 11-50] ?
80%

Which Weed suppression rate (%) Lindemia pyxidaria value belongs to Cc1ccc(S(=O)(=O)n2ncn(C(=O)N(c3ccc(F)cc3F)C(C)C)c2=O)cc1 [Compound 11-637] ?
90%

Which Weed suppression rate (%) Lindemia pyxidaria value belongs to Cc1cc(C)c(S(=O)(=O)n2ncn(C(=O)N(c3ccc(F)cc3)C(C)C)c2=O)c(C)c1 [Compound 11-855] ?
60%

Which Weed suppression rate (%) Lindemia pyxidaria value belongs to CC(C)N(C(=O)n1cnn(S(=O)(=O)CCl)c1=O)c1ccc(F)cc1F [Compound 11-109] ?
100%

Which Weed suppression rate (%) Lindemia pyxidaria value belongs to CC(C)N(C(=O)n1cnn(S(=O)(=O)C2CCCCC2)c1=O)c1ccc(F)cc1F [Compound 11-294] ?
80%

Which Weed suppression rate (%) Lindemia pyxidaria value belongs to Cc1ccc(S(=O)(=O)n2ncn(C(=O)N(c3cccc(F)c3F)C(C)C)c2=O)cc1 [Compound 11-636] ?
80%

Which Weed suppression rate (%) Lindemia pyxidaria value belongs to CN(C(=O)n1cnn(S(C)(=O)=O)c1=O)c1ccc(F)cc1F [Compound 11-1125] ?
70%

Which Weed suppression rate (%) Lindemia pyxidaria value belongs to CC(C)N(C(=O)n1cnn(S(=O)(=O)N(C)C)c1=O)c1ccc(Cl)cc1Br [Compound 11-1076] ?
60%

Which Weed suppression rate (%) Lindemia pyxidaria value belongs to CN(C(=O)n1cnn(S(=O)(=O)C2CC2)c1=O)c1ccc(F)cc1F [Compound 11-140] ?
70%

Which Weed suppression rate (%) Lindemia pyxidaria value belongs to CC(C)N(C(=O)n1cnn(S(=O)(=O)C2CCCCC2)c1=O)c1ccc(F)cc1Cl [Compound 11-301] ?
80%

Which Weed suppression rate (%) Lindemia pyxidaria value belongs to CCN(CC)C(=O)n1cnn(S(=O)(=O)c2ccccc2C(F)(F)F)c1=O [Compound 11-710] ?
40%

Which Weed suppression rate (%) Lindemia pyxidaria value belongs to CC(C)N(C(=O)n1cnn(S(C)(=O)=O)c1=O)c1c(F)cccc1F [Compound 11-14] ?
80%

Which Weed suppression rate (%) Lindemia pyxidaria value belongs to CC(C)N(C(=O)n1cnn(S(=O)(=O)c2ccccc2F)c1=O)c1c(F)cccc1F [Compound 11-404] ?
70%

Which Weed suppression rate (%) Lindemia pyxidaria value belongs to CC(C)N(C(=O)n1cnn(S(=O)(=O)c2cccs2)c1=O)c1ccc(Cl)cc1Br [Compound 11-1034] ?
70%

Which Weed suppression rate (%) Lindemia pyxidaria value belongs to CC(C)N(C(=O)n1cnn(S(=O)(=O)C(C)C)c1=O)c1c(F)c(F)cc(F)c1F [Compound 11-64] ?
80%

Which Weed suppression rate (%) Lindemia pyxidaria value belongs to CCN(CC)C(=O)n1cnn(S(=O)(=O)c2cccc(Cl)c2)c1=O [Compound 11-538] ?
70%

Which Weed suppression rate (%) Lindemia pyxidaria value belongs to CC(C)N(C(=O)n1cnn(S(=O)(=O)c2ccc(Br)cc2)c1=O)c1ccc(F)cc1F [Compound 11-616] ?
80%

Which Weed suppression rate (%) Lindemia pyxidaria value belongs to CC(C)N(C(=O)n1cnn(S(=O)(=O)c2c(F)cccc2F)c1=O)c1cccc(F)c1F [Compound 11-772] ?
70%

Which Weed suppression rate (%) Lindemia pyxidaria value belongs to CC(C)N(C(=O)n1cnn(S(=O)(=O)c2cccs2)c1=O)c1c(F)c(F)cc(F)c1F [Compound 11-1027] ?
80%

Which Weed suppression rate (%) Lindemia pyxidaria value belongs to Cc1cc(F)ccc1N(C(=O)n1cnn(S(C)(=O)=O)c1=O)C(C)C [Compound 11-25] ?
70%

Which Weed suppression rate (%) Lindemia pyxidaria value belongs to Cc1ccc(S(=O)(=O)n2ncn(C(=O)N(c3ccc(Cl)cn3)C(C)C)c2=O)cc1 [Compound 11-661] ?
100%

Which Weed suppression rate (%) Lindemia pyxidaria value belongs to CC(C)N(C(=O)n1cnn(S(=O)(=O)c2ccccc2)c1=O)c1ccc(F)cc1 [Compound 11-358] ?
80%

Which Weed suppression rate (%) Lindemia pyxidaria value belongs to CC(C)N(C(=O)n1cnn(S(=O)(=O)c2cccc(C(F)(F)F)c2)c1=O)c1ccc(Cl)cc1Br [Compound 11-735] ?
90%

Which Weed suppression rate (%) Lindemia pyxidaria value belongs to Cc1ccc(N(C(=O)n2cnn(S(=O)(=O)c3ccccc3F)c2=O)C(C)C)c(F)c1 [Compound 11-416] ?
80%

Which Weed suppression rate (%) Lindemia pyxidaria value belongs to CCN(C(=O)n1cnn(S(=O)(=O)c2ccccc2)c1=O)C1CCCCC1 [Compound 11-353] ?
80%

Which Weed suppression rate (%) Lindemia pyxidaria value belongs to CC(C)N(C(=O)n1cnn(S(=O)(=O)c2ccc(C(C)(C)C)cc2)c1=O)c1c(F)cc(F)cc1F [Compound 11-686] ?
60%

Which Weed suppression rate (%) Lindemia pyxidaria value belongs to CC(C)N(C(=O)n1cnn(S(=O)(=O)C(C)C)c1=O)c1ccc(Br)cc1Cl [Compound 11-70] ?
70%

Which Weed suppression rate (%) Lindemia pyxidaria value belongs to CC(C)N(C(=O)n1cnn(S(=O)(=O)c2ccc(Cl)cc2)c1=O)c1ccc(Cl)cn1 [Compound 11-612] ?
90%

Which Weed suppression rate (%) Lindemia pyxidaria value belongs to CC(C)N(C(=O)n1cnn(S(=O)(=O)c2ccccc2Cl)c1=O)c1ccc(F)cc1Cl [Compound 11-519] ?
70%

Which Weed suppression rate (%) Lindemia pyxidaria value belongs to CC(C)N(C(=O)n1cnn(S(=O)(=O)C(C)C)c1=O)c1ccc(Cl)cc1F [Compound 11-67] ?
90%
